assay: Plasma free fraction (fP) of the PET tracer; format: in vitro ADME, human; details: human, plasma, High Risk (HR) subjects, N=9, mean ± SD; read-out: Percent Free Fraction
recordedMetric: fraction unbound
Just the number, please, no unit after it.

Note fraction unbound for the compound shown: COc1ccccc1N1CCN(CCN(C(=O)C2CCCCC2)c2ccccn2)CC1 [[^11C]WAY-100635]
0.065

====

test: Plasma free fraction (fP) of the PET tracer; format: in vitro ADME, human; settings: human, plasma, Depressed NRM MDD subjects, N=30, mean ± SD; read-out: Percent Free Fraction
recordedMetric: fraction unbound

Kindly indicate its recorded fraction unbound. Item: COc1ccccc1N1CCN(CCN(C(=O)C2CCCCC2)c2ccccn2)CC1 [[^11C]WAY-100635]
~0.062
